system: Klebsiella sp.; test: Antibacterial activity against Klebsiella sp. after 24 hrs by disk diffusion method; type: functional; conditions: Klebsiella sp., 24 h
Reported MIC values for a set of molecules
Please state the figure in µg/mL; there is no need to write the unit.

Study these solved cases before continuing.
molecule: COCC1=NNC(=O)C1Oc1ccccc1 (stereo not drawn)
outcome measure: MIC
observed value: 6.25
//
molecule: CC(C)CC1=NNC(=O)C1Sc1ccccc1 (stereo not drawn)
outcome measure: MIC
observed value: 6.25
//
molecule: CCC1=NN(c2ccc(F)cc2)C(=O)C1Oc1ccccc1 (stereo not drawn)
outcome measure: MIC
observed value: 6.25
//
molecule: CC(C)(C)C1=NNC(=O)C1Oc1ccccc1 (stereo not drawn)
outcome measure: MIC
observed value: 6.25
//
molecule: O=C1NN=C(COc2ccccc2)C1Oc1ccccc1 (stereo not drawn)
outcome measure: MIC
observed value: 6.25
//
molecule: O=C1NN=C(c2ccc(Cl)cc2)C1Oc1ccccc1 (stereo not drawn)
outcome measure: MIC
observed value: 50

[ask] Query: MIC; subject: O=C(O)c1cn(C2CC2)c2cc(N3CCNCC3)c(F)cc2c1=O
[reply] 6.25

[ask] What does the data say about its MIC? Entry: COc1ccc(OC2C(=O)NN=C2C)cc1 (stereo not drawn)
[reply] 50
